Entry source: the NTF2 design screens of Basanta et al. (2020)

# Method: protease stability score; higher = more stable; yeast display proteolysis, trypsin and chymotrypsin;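 also: log10 excess protease needed over predicted unfolded state with 0 meaning unfolded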
Quick rule: protease stability score of at least 0.09 means 1 (yes), below that means 0 (no).

Solved entries:
DERKLATRHAHTLDRILRTGDEERYVDMADKDVKFDVGDRKYKGRHELHKLAKEEQKKADHLQLNYKHITAHNGRVDMDVVVVQVHNGQKRQTNVRYSEEIHNGNVIVQSATEK 0 (no)
DQERNEQAKKLLDIINTGDEHKVKDMFDPNASIKVGDHTLHGREEIAKHYRREKDESRYQVDRVDFKAHGEKVRVSVKYTFRHNGKPLTATVEYNFRMHNGRIKDLSVRFDEQRQRDRDS 1 (yes)
EKSIVEFFKKWVTAQRDGDPRQHARYIDPNARLQVGDRVVNGREQAKDDQHKKRKEIKVDMRIKSISASNGTLEVNFREKVDVNGRPITREYRFRFEVRNGRITSLSNQVDKEEQKKLKK 1 (yes)

Switching to the query record.
Answer whether protease stability score of DKEEVQRIVEEMLKFVESGDIKKLVDHGKEGVRYRLGDEEAHGPEAIKKMVVKMKKVGLRIEVKEYQVEGDTATTKLKYQLGDTEDTVEVNAQAQGGRIDQVNADVDKTAVDMIKQG is greater than or equal to 0.09.
0 (no)

----------
# Method: protease stability score; higher = more stable; yeast display proteolysis, trypsin and chymotrypsin;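 also: log10 excess protease needed over predicted unfolded state with 0 meaning unfolded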
Classification field: enter Satisfied for protease stability score values not below -0.08, Not satisfied for values below it.

DEHLVRLADRLLTAVRHGDEDRWVEQFDPNATVKIGDKELHGRSQIKTELERERDTSRVNVQRFSIEDQGDKAVVDVEYVITKNGRPQKDRAKATYNVNNGRFKNASMQKVS Not satisfied

Decide: protease stability score of DEDQQKEVEKMLQDRRTNNPERIRKMFDPNARVQVGDKTINGREDAKRYAEEERDQIRVEYKSINISVHNGRVQVDVRARFNHNGKPETRQFNLDASIHNGRIKEFQQRDDK >= -0.08?
Not satisfied

Evaluate DDRDLEQLLRELVTIWKNGNFEDLSRQADPNVKFRVGDKTYHGREQASKLWKKLSDQADHWSVDSVQAKGDTLRLDFRATVNGHEVRMVYHARIQNGSITSWEIQYTSEELHTRVER : protease stability score at minimum -0.08?
Satisfied

Answer whether protease stability score of DEEFEQNAKEWLTAIKENDPDQVRDLVDEDVRFNVGNKKVHGRERWKHLVETENKELRVEYESIDVKVNGDKAEFNATVTVEVNGKPAHFHVNMKMQAHNGRIKHVSQNMSHEDQEKFRK is greater than or equal to -0.08.
Not satisfied

----------
# Method: protease stability score; higher = more stable; yeast display proteolysis, trypsin and chymotrypsin;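 also: log10 excess protease needed over predicted unfolded state with 0 meaning unfolded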
Some sequences, each annotated with its measured protease stability score.
Give the figure by itself; no unit, no explanation.

Some solved cases for reference:
DEHARHLVSELLRALESGDPDQLVKMADPNVEAQIGDKRYTGRSHMKKMQEDLKREMRYHVTDFHVEVNGNTAVADVDASVEHNGQPRRHRYRIVITFENGRAKDFSIQRDK 1.12
DEEQLKHVAEQLRRLWENNDENQIAQLMDENVEVQVGDKTLHGRDDVRKWAQDLRKSADHVKVHSIRNRGDKVQMDFVVENNGRQTKMEVIAHVHNGRIKSLKLRTK 1.16
DEERMHRLKKLFDTNDNEQMSKQASENARMQVGNKVFHGREDIEKFILEERRRADHITYKHVTEHGNKVQAHVVKVVNGRSIDVIFEVEIDNGRIKRMSIQARDSEDQNKAEKALS 0.345
DEEKHDDFARKLVRAVQSNDFRQQEKMFRQDVRMRVGDKEVHGREQFRDWLRTLDEEVDRYEVKSVTAQGDKVKIVAVFRINGKQFTLTVTIHVSNGKAVNMRINPDQQRQQER 0.104
DEKKAKELAETMFKYIQNGDEEKAQKYVDDNVEYKYIDKEYEGKDVVKEVVDKIKKLGVEVKLKRAEVKGDRVTADFEYKHGDNTVRTTVEVQYEGDRVKKARVELTDEARKVIDKG 0.352

Consider the sequence DEETDEKVAKTLMRIMRTGDPKQYADQADEEVRVVVGDQTYTGRESVSEAFEEWTERVDHLEIKDIRVHGEKVNIDAVVDINGHQRKIEFSMTLHNGRIKELVYTDG . State its measured protease stability score.
-0.598

----------
# Method: protease stability score; higher = more stable; yeast display proteolysis, trypsin and chymotrypsin;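 also: log10 excess protease needed over predicted unfolded state with 0 meaning unfolded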
# if value of protease stability score reaches 0.3, tag true (1); if it stays below, tag false (0)

Worked examples, 5 sequences total:
DDEVFRRFQEALDIVKKGDPKKFEEMADPNARVKVGDKQLHGRETIAKDIADHMKEMKIEWRVKKLTTNEDHVNVTERWQQKHDGRPEDRERRARVRARGDKLKNHEVETDG false (0)
DEDELQRFAEQVNRVVRQGDPKQAERLFDENARVQIGDKTYHGREDISKMIENQRRRVDHIKVRRIDVQGNELVIHLVYNVNGQEHRNVLVFELHNGKIESAHRTDG true (1)
DEDAMKRFKDLLRAQETGDEHRIRELVDPNAQFVIGDRKITGREEYVRIFREERENMHIDLEVKSVSVKGNKLTIHLTFKVDHNGKPMRASAQIQVKIRNGRIQEVQYDFDEDQLRKLKR true (1)
DEEFQTEAEKMFTNQRNNNEDHLKDQFDKDAKVQVGDKEFHGTERYEETFRTQMEHMRYDIDSFTARVHGEDLDVDVSFQFESNGKPDRNRAKIIATYHNGRIKHLRVDQDQ false (0)
DHTELETLARRMVDAMRTGDPDKLAELADPNVKVTYGDKSVHGHEQFTKQMKEFVDQYDHVRVERLKIEGDKVHADLNAEHNGRSSRFIMLITVKNGRVKHLKFKNR true (1)

Textbook exercise: given the entry EEKATRIAHELLSAVERGDEDRAEENFDENAQFQVGDKDIHGREQMKHFVKTVKEQSRLDMHITDVQDRPGHANVKATAREDNNGNPNNIRITMRASVSNGRIQSMQINYTD , state whether its protease stability score is greater than or equal to 0.3.
false (0)

----------
# Method: protease stability score; higher = more stable; yeast display proteolysis, trypsin and chymotrypsin;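 also: log10 excess protease needed over predicted unfolded state with 0 meaning unfolded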
// protease stability score lookup, one value per entry
Provide a numeric answer; units are not to be included.

Some sequences with known protease stability score results, for comparison:
DETALRIAEDWFRALQNGNPERMQENVDPNARVQIGDKELHGREQIHELAQKIKEEMRIEVNITHVDVHGEHLRLEFDIRVDINGKPVTNHNTAEFNVENGSIKHISFDIDPRQLNKMQK 0.746
DEKHAHKIVRAWSQGDPDQLAELADPNVRLVVGDKTYDGRESFVKWLKDLRKRIDHVRVDSVKINGNKIEIDMRFQVDGVHLVVTVDIEFKNGKIKDVRIQYRDEEQLKDIKKVVR 1.2
DEKRLKEVAKKVFEAVQKGDTEKLKKLGKEDGKFQFLDHRYKGKEEYARIMQKLKKHGVQFEIKKYQVKDNKVRMETVVTYGDQTFTVEAEARYEGGQLDEARVEMTEEAKERLKQG -0.084
DENVRRLVEHLIRAVQSNDPDKVVENLDPNASIHVGEKRYHGEDRAKDMYETEKNQMRVQVRLTQLHVQGNHAKLRETVLIDHNGRPVNVSLDMSLIAHNGRVHEIHETVPEENRKERKG -0.029

Please list protease stability score recorded for the sequence DERNQKEVADKMYTAFRHGDPRKINKLADKDVTARYGDKVVSGRDDMVRQIDEIRKSIDHMSITSIEVHNGKADATLRFVVNGRDLQMKLVIVIHNGKVKHLSVQFRDDEQKKVLER
-0.174

Look up and report measured protease stability score for this entry: DDDAARQFEEVMKAVEHGDPHQVEELVDPNATFNVGDKRWHGMRENMQEHISRFQSINMTVEIKRVEDTNGRAKFEASVTRNDNGKPDTFTVEIVVRVHNGEIKEVQLNNTK
0.158

Please report protease stability score for the following sequence: DEHAQKLLEKEKDALERNNPDHFRDMVDKDARLRVGNKVIHGREQVSEDVERKRDEMRYRFEIKHVQVHNGQIDADVVQVVNVNGHPVRNKYRITVNVTNGRAKQVTVRIDEDTLRKMDR
-0.027

Give protease stability score for DDEAQRIVHKFVRAMQTNDPDSVEKLLDKNARIEYGDKTIHGNSQAREEVEKTKNQARFQIDSYRVQEEPGRAVLDQKVTFRINGQPDQMRHTLYFDFHNGRVTNLHMHIDEDDYQRHRG
-0.019

Answer with reported protease stability score of DDDARERVDELLEVEQTGNREDIKRLVDPNAKVQVGDDEYHGMEVYAETVVKKRKEINIELRFKDMQVHNGRANADVEAVYDHNGRPSRMRFVLHFVIRNGKFKEIRLREDR
1.2

----------
Parameter protease stability score: see the listing below.
# Method: protease stability score; higher = more stable; yeast display proteolysis, trypsin and chymotrypsin;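 also: log10 excess protease needed over predicted unfolded state with 0 meaning unfolded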
Lab note: record the figure alone, no unit after it.

DEENLHRRAEQFVKALEHGDQHQFRRMFDENARVEVGDKFFHGREEVARFMRDLTRRIDHVQFRRMEVRGEKIIVKAEAHVNGKRVTIIFDLTVKNGRIKHVRITFTDEKDRREFER 1.12
DEEQEARDQIKKYLDIFRTGDPDQAKKLFDKDAEVRIGDKHVRGREQISDFFKKLLHKADHVEYTIQDYDVHGDKVTVHLTVVINVNGDERRNTMVIVIKVQGEKERVQSVRVG 1.09

Now examine the next entry.
Give a short answer stating reported protease stability score for DERKIEHAQRILKHNDKHKLQNLFDKNARLEIGDTTFTGRERAQHWARRLYQQADHFEVKSVDNNPNDLTVELVVRVNGHDIHFQFRFRIKNGRITSFQVDYTDEDDERKMKDVDR .
0.369
